tested on: ragweed (common ragweed, Ambrosia artemisiifolia); assay: Test A postemergence application, visual injury rating 0-100; assay type: in vivo; settings: 62 g ai/ha, postemergence, 10 days, 0 = no effect, 100 = complete control

[
  {
    "compound": "CC(C)COC(=O)C1=CCC(NC(=O)C2(C)CN(c3cc(Cl)cc(Cl)c3)C(=O)O2)C1 (centres unmarked)",
    "Ragweed plant response rating (0-100)": 50
  },
  {
    "compound": "COC(=O)C1C=CC(NC(=O)C2(C)CN(c3cc(F)cc(F)c3)C(=O)O2)C1 (centres unmarked) [Compound 89]",
    "Ragweed plant response rating (0-100)": 70
  },
  {
    "compound": "CC1(C(=O)NC2CC=C(C(=O)O)C2)CN(c2cc(F)cc(Cl)c2)C(=O)O1 (centres unmarked)",
    "Ragweed plant response rating (0-100)": 0
  },
  {
    "compound": "CC(C)COC(=O)C1=CCC(NC(=O)C2(C)CN(c3cc(F)cc(F)c3)C(=O)O2)C1 (centres unmarked)",
    "Ragweed plant response rating (0-100)": 60
  },
  {
    "compound": "CC(C)OC(=O)C1=CCC(NC(=O)C2(C)CN(c3cc(Cl)cc(Cl)c3)C(=O)O2)C1 (centres unmarked) [Compound 106]",
    "Ragweed plant response rating (0-100)": 0
  },
  {
    "compound": "CCOC(=O)C1C=CC(NC(=O)C2(C)CN(c3cccc(OC(F)(F)F)c3)C(=O)O2)C1 (centres unmarked)",
    "Ragweed plant response rating (0-100)": 20
  },
  {
    "compound": "COC(=O)C1CC(NC(=O)C2(C)CN(c3cc(F)cc(F)c3)C(=O)O2)C1 (centres unmarked) [Compound 117]",
    "Ragweed plant response rating (0-100)": 40
  },
  {
    "compound": "CC1(C(=O)NC2C=CC(C(=O)O)C2)CN(c2cc(F)cc(F)c2)C(=O)O1 (centres unmarked)",
    "Ragweed plant response rating (0-100)": 80
  }
]
